Each recorded value in this set is attributed to patent US8410164B2.

ASSAY NOTES: pKa comparison of calcein and fluorescein
Type: physicochemical
OBSERVED PROPERTY: pKa
Write the number on its own, no unit after it.

Lab note: measured pKa of O=C1OC2(c3ccc(O)cc3Oc3cc(O)ccc32)c2ccccc21 was 6.4
